- Test system: 786-0 renal
- Method summary: NCI-60 one-dose screen, 48 h (100 = growth as untreated, 0 = no growth, -100 = all killed)
- Protocol conditions: 10 µM unless noted
Compounds without any hit were thinned out: in the full panel of roughly 83,000, 20% have a hit.
Please assign no (0) whenever growth is at or above -70%, and yes (1) whenever it is below.

>>> df
                  compound_structure_string  qualitative_label
0         O[N+]1=CC=CCC1=S.On1ccccc1=S.[Zn]            yes (1)
1   COC(=O)C1(NC(=O)CNC(=O)OCc2ccccc2)CCCC1             no (0)
2  Cc1ccc(C2=Nc3c(ccc4c(C)c(C)c(=O)oc34)OC2)cc1             no (0)
3    COc1ccc2nc(N/N=C(\C)c3ccccn3)cc(C)c2c1            yes (1)
4                         O=Cc1ccccc1C(=O)O             no (0)

###

- System: SF-539 CNS
- Method summary: NCI-60 one-dose screen, 48 h (100 = growth as untreated, 0 = no growth, -100 = all killed)
- Protocol conditions: 10 µM unless noted
Compounds without any hit were thinned out: in the full panel of roughly 83,000, 20% have a hit.
Outcome measure: growth (%)

Compound	Number
COc1ccccc1-n1c(-c2ccc(O)cc2C)cn2c3c(=O)[nH]c(=O)n(C)c3nc12	88.8
CC[C@@H](C)/C=C(C)/C=C/C(O)=C1\C(=O)N[C@@H](Cc2ccc(OC(=O)[C@@](OC)(c3ccccc3)C(F)(F)F)cc2)C1=O	114
CCSc1nc(-c2cccs2)n2nc(-c3ccco3)cc2n1	100
Oc1c(Cl)cc(Oc2cc(Cl)c(O)c(CN3CCOCC3)c2)cc1CN1CCOCC1	98.2
N#CC1c2ccccc2C=CN1C(=O)N(c1ccccc1)c1ccccc1 (centres undefined)	109
CCN(CC)CCOCC[C@H]1CC[C@H]2[C@@H]3[C@H](C)Cc4cc(OS(N)(=O)=O)ccc4[C@H]3CC[C@]12C	-96.1
COc1ccc([N+](=O)[O-])c(S(=O)(=O)c2ccc(Cl)cc2)n1	82.8
Cc1[nH]ccc2cc3nc4ccccc4c3cc12	34
O=c1c2ccccc2c2nccn2c2cc(Cl)ccc12	94.2
Nc1nc2c(c(=O)[nH]1)C1(C(=O)Nc3ccccc31)c1c(nc(N)[nH]c1=O)N2	106
COc1ccc(NC(=O)c2ccccc2-c2ccccc2)c(C(N)=O)c1	-1.25
Cc1cc2c(cc1C)[n+](Cc1ccc3ccccc3c1)cn2Cc1ccc2ccccc2c1	-93.2
CC1=C([Se]CC(OC(=O)[C@@H](CSSC(C)(C)C)NC(=O)C(C)(C)C)C(=O)NCCCCCC(=O)OCc2ccccc2)C(=O)c2ccccc2C1=O (some centres undefined)	-69.4
NS(=O)(=O)c1cc2c(cc1Cl)NC=NS2(=O)=O	103

###

Below, each of the compounds is paired with its reported growth value.
- System: OVCAR-3 ovarian
- Method summary: NCI-60 one-dose screen, 48 h (100 = growth as untreated, 0 = no growth, -100 = all killed)
- Protocol conditions: 10 µM unless noted
- Description: Growth inhibition of the OVCAR-3 human tumor cell line is measured as a screen for anti-cancer activity. Cells are grown in 96 well plates and exposed to the test compound for 48 hours. Compounds are tested at a single concentration, which is 10^-5 M for most compounds. The reported endpoint is percent growth (GI% or GIPRCNT), where numbers from 0 - 100% represent growth inhibition, and numbers from -100% - 0 represent cell death. For example, a value of 40 represents 60% growth inhibition. […]
The panel holds about 83,000 compounds, 20% with a hit somewhere; the sample as a whole holds those more often.
Outcome measure: growth (%)

>>> print(df.to_string())
                  compound_structure_string  outcome_measure  number
0  O=C(CSc1ncc(-c2ccccc2)n1-c1ccccc1)Nc1ccc(-c2nc3ccccc3s2)cc1           growth    95.4
1         CN(C)c1ccc(-c2nc3ncc(Br)cc3o2)cc1           growth     112
2  COc1cc(-c2nc3sc4c(c3c(=O)[nH]2)CCCCCC4)cc(OC)c1OC           growth   -3.03
3  N#Cc1c(-c2ccccc2)cc(-c2ccccc2)n(CCCCCCC(=O)O)c1=O           growth     109
4  COc1cc(/C=N/NC(=O)c2ccc(C(F)(F)F)nc2Nc2cc(Cl)ccc2C)cc(OC)c1OC           growth     123
5  O=[N+]([O-])c1ccc(N=Nc2c(Cl)cc(O)cc2Cl)cc1           growth   -25.3
6  Nc1nc(Nc2ccccc2SSc2ccccc2Nc2nc(N)nc(-c3ccc(I)cc3)n2)nc(-c2ccc(I)cc2)n1           growth    94.1
7  COc1cc(OC)c2c(c1Cl)O[C@]1(C2=O)C(OCc2ccccc2)=CC(=O)C[C@H]1C           growth   -23.5

###

- System: SF-295 CNS
- Method summary: NCI-60 one-dose screen, 48 h
- Protocol conditions: 10 µM unless noted
Compounds without any hit were thinned out: in the full panel of roughly 83,000, 20% have a hit. The source made the active and inactive calls. How the source made its calls: active means growth percent below 10; inactive means the rest.
Classes used: active, inactive

                                    compound      target  qualitative_label
 0         Oc1ccc(/C=N/Nc2nc3ccccc3s2)c(O)c1  SF-295 CNS           inactive
 1            Oc1c(N=Nc2nn[nH]n2)ccc2ccccc12  SF-295 CNS           inactive
 2  CC(=O)OCC(=O)[C@@]1(O)CC[C@H]2[C@@H]3CCC4=CC(=O)CC[C@]4(C)[C@@]3(F)[C@@H](O)C[C@@]21C  SF-295 CNS           inactive
 3      CCSc1nc(-c2ccco2)n2nc(-c3ccco3)cc2n1  SF-295 CNS           inactive
 4  CCCCOP(=O)(OCCCC)C(C(=O)OCC)C(CC(=O)OCC)C(=O)OCC (centres undefined)  SF-295 CNS           inactive
 5  CN(C)CCC(=O)Nc1ccc(-n2cc(-c3cccc(NC(=S)Nc4cccc(-c5cn(-c6ccc(NC(=O)CCN(C)C)cc6)nn5)c4)c3)nn2)cc1  SF-295 CNS           inactive
 6  O=C(c1ccccc1)c1ccc(Oc2ccc([N+](=O)[O-])cc2[N+](=O)[O-])cc1  SF-295 CNS           inactive
 7                Nc1ncnc2c1CN(Cc1ccccc1)CC2  SF-295 CNS           inactive
 8  CC12CCC3C(=CCc4cc(O)ccc43)C1CCC2=O (centres undefined)  SF-295 CNS           inactive
 9      CCCCN1c2nc3ccccc3cc2Sc2cc3ccccc3nc21  SF-295 CNS           inactive
10  COC(=O)[C@H](Cc1cn(C)cn1)NC(=O)[C@H](C)NC(=O)Nc1cc(C(F)(F)F)cc(C(F)(F)F)c1  SF-295 CNS             active
11  O=c1[nH]c(SCc2ccccc2)nc2nc(Nc3ccc(NC(=S)Nc4ccccc4)cc3)nc(-c3ccc(O)cc3O)c12  SF-295 CNS           inactive
12  CC[C@@H](C)/C=C(C)/C=C/C(=O)c1c(O)c(-c2ccc(O)cc2)cn(OC2CC(=O)CCC(C)OC(=O)CC2O)c1=O (some centres undefined)  SF-295 CNS             active
13  Cc1n(Cc2ccc3ccccc3c2)c2ccccc2[n+]1Cc1ccc2ccccc2c1  SF-295 CNS             active
14  COC(=O)c1cc2oc(/C=N\NC(=O)c3cc4oc(C)c(C)c4[nH]3)cc2[nH]1  SF-295 CNS           inactive
15  Cc1ccc(S(=O)(=O)N2CCN(C(=O)CSc3nc4ccc(C)cc4[nH]3)CC2)cc1  SF-295 CNS           inactive
16  CC[C@@H](c1ccc(O)c(O)c1)[C@@H](CC)c1ccc(O)c(O)c1  SF-295 CNS           inactive
17  COc1c(O)cc2c(c1CC=C(C)C)OC(=O)c1c(cc(O)c(CC=C(C)C)c1O)O2  SF-295 CNS           inactive
18         c1ccc2c(-c3nc4ccccc4[nH]3)cccc2c1  SF-295 CNS           inactive

###

Below, each of the compounds is paired with its reported growth value.
- System: ACHN renal
- Method summary: NCI-60 one-dose screen, 48 h (100 = growth as untreated, 0 = no growth, -100 = all killed)
- Protocol conditions: 10 µM unless noted
About 83,000 compounds went through this panel and 20% of them were active in at least one assay; those are over-represented in the sample as a whole. Active and inactive are the calls of the source. The calls were made as follows: active = growth percent below 10; inactive = the rest.

Compound	Target	growth
COc1cc2c(cc1OC)C(=O)/C(=C/c1cccc(OCC(=O)c3ccccc3)c1)C2	ACHN renal	96.9% (inactive)
NS(=O)(=O)c1ccc(-n2nc(-c3ccc(Br)cc3)ccc2=O)cc1	ACHN renal	70.8% [100 µM] (inactive)
CSc1nc(Nc2ccc(S(=O)(=O)Nc3ccon3)cc2)c(C#N)c(-c2ccc(Cl)cc2)n1	ACHN renal	90.2% (inactive)
CC1C(C)N(C(=O)CCl)c2ccccc2N1C(=O)CCl (stereo not drawn)	ACHN renal	-91.5% (active)
COc1cccc(C=Nc2cc(C(C)C)c(O)cc2C)c1O	ACHN renal	100% (inactive)
Cc1cc(C)c2c(N)c3cccc(C)c3nc2n1	ACHN renal	5.96% (active)
O=C(/C=C/c1cccc(Nc2ccnc3cc(Cl)ccc23)c1)c1ccc(Cl)cc1	ACHN renal	51.1% (inactive)
c1ccc(Nc2ccc(Nc3nc(-c4ccccc4)nc4ccccc34)cc2)cc1	ACHN renal	81.3% (inactive)
COc1c(Br)cc(C(c2cc(Br)c(OC)c(Br)c2)c2ccccc2C(=O)O)cc1Br	ACHN renal	91.2% (inactive)
NS(=O)(=O)c1cc(C2(O)NC(=O)c3ccccc32)ccc1Cl (stereo not drawn)	ACHN renal	90.7% (inactive)
C=CCNC(=O)/C(=C/c1cccc([N+](=O)[O-])c1)NC(=O)c1ccccc1	ACHN renal	94% (inactive)
FCc1ncc(-c2ccc(C(F)(F)F)cc2)c(NC2CCCCCC2)n1	ACHN renal	8.81% [100 µM] (active)
CN1CCN(CCCOc2ccc3ncnc(Nc4ccc(OCc5cccc(F)c5)c(Cl)c4)c3c2)CC1	ACHN renal	-50.7% (active)
CN(C)CCC(=O)Nc1ccc(-n2cc(-c3cccc(NC(=S)Nc4cccc(-c5cn(-c6ccc(NC(=O)CCN(C)C)cc6)nn5)c4)c3)nn2)cc1	ACHN renal	117% (inactive)
COc1cnc2c(c1)C(=O)c1c-2n(CCCN2CCNCC2)c(=O)c2cc(F)ccc12	ACHN renal	-78.1% (active)
CN1CCC[C@@H]1CCO[C@](C)(c1ccccc1)c1ccc(Cl)cc1	ACHN renal	65.9% (inactive)
C[N+]1(C)C2CC[C@@H]1CC(OC(=O)C(O)c1ccccc1)C2 (stereo partly drawn)	ACHN renal	106% (inactive)
C[C@H](C(=O)N[C@@H](Cc1ccc(-c2ccccc2)cc1)C(=O)NC1CC(C)(C)N(C)C(C)(C)C1)c1ccc(-c2ccccc2)c(F)c1	ACHN renal	-87.8% (active)
Fc1ccccc1C1c2ccccc2-c2nccn21 (stereo not drawn)	ACHN renal	112% (inactive)
CC1CC=CCC1C1OCC(C)(C)CO1 (stereo not drawn)	ACHN renal	106% (inactive)
O=C1c2cc3c(cc2-c2c1c1ccc(Cl)cc1c(=O)n2CCCNCCO)OCO3	ACHN renal	-87.5% (active)
COc1cc(/C=C/C(=O)CC(=O)/C=C/c2ccc(OC(=O)C3C4CC5CC(C4)CC3C5)c(OC)c2)ccc1OC(=O)C1C2CC3CC(C2)CC1C3 (stereo not drawn)	ACHN renal	144% (inactive)
CN[C@@H]1C(OC2[C@H](O[C@H]3[C@H](O)[C@@H](O)[C@H](N=C(N)N)[C@@H](O)[C@@H]3N=C(N)N)OC(C)[C@]2(O)CO)OC(CO)C(O)C1O (stereo partly drawn)	ACHN renal	114% (inactive)
COc1cc(/C=C/C(=O)c2c(C)n([O-])c3ccc(Cl)cc3[n+]2=O)cc(OC)c1OC	ACHN renal	79.6% (inactive)
COc1ccc(CC(=O)Nc2nn3c(-c4cc(C(F)(F)F)cc(C(F)(F)F)c4)nnc3s2)cc1	ACHN renal	81.9% (inactive)
COc1ccc2c(c1)c(CC(=O)[Se]C)c(C)n2C(=O)c1ccc(Cl)cc1	ACHN renal	10.4% (inactive)
COc1ccc2c(c1)C(=Nc1cc(OC)c(OC)c(OC)c1)C(=O)N2	ACHN renal	88.5% (inactive)
C[C@]12CC[C@H](O)CC1=CC[C@@H]1[C@@H]2CC[C@]2(C)C(c3cccnc3)=CC[C@@H]12	ACHN renal	61% (inactive)

This collection of values is drawn from PubChem BioAssay (NCI).
